assay: qHTS RealTime-Glo MT Cell Viability Assay in HEK293 cells - 16 hour (AID 1224872); conditions: RealTime-Glo luminescence; series mostly up to 76.8 µM; further: nearly all actives have a fitted effect of over 50% in size
Results filed as inconclusive are left out. Active and inactive are the calls of the source. The call rests on the fitted dose curve; in most records, active means well fitted cell-killing curve with a large enough effect in the repeat runs; inconclusive means weak or mixed curves, or effect the other way; inactive means flat fitted curve, though single readings scatter.
Classes used: active, inactive

compound: COC12CC[C@@]3(C[C@@H]1C(C)(O)C(C)(C)C)[C@H]1Cc4ccc(O)c5c4[C@@]3(CCN1CC1CC1)[C@H]2O5 (stereo partly drawn)
discrete-label: active

compound: CC(C)C(=O)Cl
discrete-label: inactive

compound: CNC(C)Cc1ccc2c(c1)OCO2 (stereo not drawn)
discrete-label: inactive

compound: FC(Cl)(Cl)Cl
discrete-label: inactive

compound: CCC(C)c1cc([N+](=O)[O-])cc([N+](=O)[O-])c1OC(=O)C=C(C)C (stereo not drawn)
discrete-label: active

compound: O=C(O)COc1nc(Cl)c(Cl)cc1Cl
discrete-label: inactive

compound: CC(C)OC(=O)C(O)(c1ccc(Cl)cc1)c1ccc(Cl)cc1
discrete-label: active

compound: CCSC(C)CC1CC(=O)C(/C(CC)=N/OC/C=C/Cl)=C(O)C1 (stereo not drawn)
discrete-label: inactive

compound: CN(C)[C@@H]1C(=O)C(C(N)=O)=C(O)[C@@]2(O)C(=O)C3=C(O)c4c(O)ccc(Cl)c4[C@@](C)(O)[C@H]3C[C@@H]12
discrete-label: inactive

compound: Cc1cc(C(C)(C)c2cc(C)c(O)c(C)c2)cc(C)c1O
discrete-label: active

compound: BrCC(Br)c1ccccc1 (stereo not drawn)
discrete-label: inactive

compound: Nc1ccc([N+](=O)[O-])cc1Cl
discrete-label: inactive

compound: Cn1[nH]nnc1=S
discrete-label: inactive

* * *

assay: qHTS assay to identify small molecule antagonists of the sonic hedgehog signaling (Shh) pathway - cell viability counter screen (AID 1259367); conditions: NIH/3T3 Gli1-Luc viability, CellTiter-Fluor, 24 h; series mostly up to 92.4 µM; further: nearly all actives have a fitted effect of over 55% in size
Results filed as inconclusive are left out. Calls of active or inactive are those of the source. Calls follow the shape of the dose curve; as a rule, active = well fitted cell-killing curve with a large enough effect in the repeat runs; inconclusive = weak or mixed curves, or effect the other way; inactive = no such curve, though single readings can be large or run the other way.
Classes used: active, inactive

compound: NNC(=O)c1ccccc1
discrete-label: active
--
compound: Clc1ccc(C(Cl)(Cl)Cl)c(Cl)c1
discrete-label: inactive
--
compound: C=CCC1=C(C)C(OC(=O)C2C(C=C(C)C)C2(C)C)CC1=O (stereo not drawn)
discrete-label: inactive
--
compound: C[C@@H](Oc1ccc(Cl)cc1Cl)C(=O)O
discrete-label: inactive
--
compound: CCSC(C)CC1CC(=O)C(/C(CC)=N/OC/C=C/Cl)=C(O)C1 (stereo not drawn)
discrete-label: inactive
--
compound: C[C@@H]1CC[C@@]2(OC1)O[C@H]1[C@@H](O)[C@H]3[C@@H]4CC[C@H]5C[C@@H](O[C@@H]6O[C@H](CO)[C@H](O[C@@H]7O[C@H](CO)[C@@H](O)[C@H](O[C@@H]8OC[C@@H](O)[C@H](O)[C@H]8O)[C@H]7O[C@@H]7O[C@H](CO)[C@@H](O)[C@H](O[C@@H]8O[C@H](CO)[C@@H](O)[C@H](O)[C@H]8O)[C@H]7O)[C@H](O)[C@H]6O)[C@H](O)C[C@]5(C)[C@H]4CC[C@]3(C)[C@H]1[C@@H]2C
discrete-label: active
--
compound: COP(N)(=S)OC
discrete-label: inactive
--
compound: CC(=O)[O-].CC(=O)[O-].O.O.[Cd+2]
discrete-label: active

* * *

assay: qHTS assay to identify small molecule agonists or antagonists of the thyroid stimulating hormone receptor (TSHR) signaling pathway - wild type cell line counter screen (AID 1259384); conditions: HEK293 wild type, cAMP HTRF counter-screen, stronger effect = higher value; series mostly up to 92.4 µM
Records with an inconclusive call do not appear. The source made the active and inactive calls. The call rests on the fitted dose curve.
reported-property: cAMP activity change

molecule: Oc1c(Cl)c(Cl)cc(Cl)c1Cl
test-value: inactive
//
molecule: NC(=O)CCl
test-value: inactive
//
molecule: COP(=O)(CCC(=O)NCO)OC
test-value: inactive
//
molecule: CN(C)[C@@H]1C(=O)C(C(N)=O)=C(O)[C@@]2(O)C(=O)C3=C(O)c4c(O)ccc(Cl)c4[C@@](C)(O)[C@H]3C[C@@H]12
test-value: inactive
//
molecule: CC(Cc1ccc(C(C)(C)C)cc1)CN1C[C@@H](C)O[C@@H](C)C1 (stereo partly specified)
test-value: inactive
//
molecule: CCCCOCN(C(=O)CCl)c1c(CC)cccc1CC
test-value: inactive

* * *

assay: qHTS assay to identify small molecule antagonists of the sonic hedgehog signaling (Shh) pathway - cell viability counter screen (AID 1259367); settings: NIH/3T3 Gli1-Luc viability, CellTiter-Fluor, 24 h; series mostly up to 92.4 µM; further: nearly all actives have a fitted effect of over 55% in size
Records with an inconclusive call do not appear. Calls of active or inactive are those of the source. The call rests on the fitted dose curve; in most records, active means well fitted cell-killing curve with a large enough effect in the repeat runs; inconclusive means weak or mixed curves, or effect the other way; inactive means no such curve, though single readings can be large or run the other way.
Classes used: active, inactive

molecule: FC(Cl)(Cl)Cl
discrete-label: inactive
--
molecule: C[C@@H]1O[C@@H](O[C@H]2C[C@@H](O)[C@]3(CO)[C@H]4[C@H](O)C[C@]5(C)[C@@H](C6=CC(=O)OC6)CC[C@]5(O)[C@@H]4CC[C@]3(O)C2)[C@H](O)[C@H](O)[C@H]1O
discrete-label: inactive
--
molecule: N#Cc1c(-c2ccc(Cl)cc2)[nH]c(C(F)(F)F)c1Br
discrete-label: active
--
molecule: CCCCOCN(C(=O)CCl)c1c(CC)cccc1CC
discrete-label: active
--
molecule: O=c1oc2ccccc2c(O)c1Cc1c(O)c2ccccc2oc1=O
discrete-label: inactive
--
molecule: Nc1ccccc1C(=O)OC/C=C/c1ccccc1
discrete-label: inactive
--
molecule: ClC(Cl)=C(Cl)Cl
discrete-label: inactive
--
molecule: CC(C)OC(=S)S
discrete-label: active
--
molecule: C1CCC2CCCCC2C1 (stereo not given)
discrete-label: inactive
--
molecule: Fc1ccc(Oc2ccnc3cc(Cl)cc(Cl)c23)cc1
discrete-label: inactive
--
molecule: ClCCN1CCOCC1
discrete-label: inactive
--
molecule: CC(C)(C)C(O)C(Oc1ccc(-c2ccccc2)cc1)n1cncn1 (stereo not given)
discrete-label: active
--
molecule: Cn1[nH]nnc1=S
discrete-label: inactive
--
molecule: COc1ccc(OC)c(CC(C)N)c1 (stereo not given)
discrete-label: inactive
--
molecule: CCS(=O)(=O)c1cccnc1S(=O)(=O)NC(=O)Nc1nc(OC)cc(OC)n1
discrete-label: inactive
--
molecule: CCOP(=S)(OCC)SCS(=O)(=O)CC
discrete-label: inactive
--
molecule: O=c1c(C2CC(c3ccc(-c4ccc(Br)cc4)cc3)Cc3ccccc32)c(O)sc2ccccc12 (stereo not given)
discrete-label: inactive
--
molecule: CC(=O)OC1(c2ccccc2)CCN(CCc2ccccc2)CC1
discrete-label: inactive
--
molecule: COc1ccc([N+](=O)[O-])cc1O
discrete-label: inactive
--
molecule: CC1CCC(C(C)C)C(OC(=O)c2ccccc2N)C1 (stereo not given)
discrete-label: inactive

* * *

assay: qHTS assay to test for compound auto fluorescence at 590 nm (red) in HEK293 cell free culture (AID 720683); conditions: cell-free medium autofluorescence, Ex540/Em590 red; series mostly up to 91.3 µM
Activity calls are given as the source filed them. Calls come from the whole dose curve; as a rule, active = well fitted curve in the direction sought with a large enough effect in the repeat runs; inconclusive = weak or mixed curves; inactive = flat fitted curve, though single readings scatter.

smiles: CC(C)Oc1cccc(NC(=O)c2ccccc2C(F)(F)F)c1
fluorescence, % of fluorescent control: inactive
--
smiles: O=[N+]([O-])c1ccc(Oc2ccc(C(F)(F)F)cc2[N+](=O)[O-])cc1
fluorescence, % of fluorescent control: inactive
--
smiles: ClC1=C(Cl)[C@]2(Cl)[C@@H]3[C@@H]4C[C@@H]([C@H]5O[C@@H]45)[C@@H]3[C@@]1(Cl)C2(Cl)Cl
fluorescence, % of fluorescent control: inactive
--
smiles: CC(C)CC(C)(c1ccc(O)cc1)c1ccc(O)cc1
fluorescence, % of fluorescent control: inactive
--
smiles: Oc1ccc(C(c2ccc(O)cc2)(C(F)(F)F)C(F)(F)F)cc1
fluorescence, % of fluorescent control: inactive
--
smiles: Cc1cc(N=Nc2ccccc2C)ccc1N
fluorescence, % of fluorescent control: inactive
--
smiles: Cc1cc(C)cc(OP(=O)(Oc2cc(C)cc(C)c2)Oc2cc(C)cc(C)c2)c1
fluorescence, % of fluorescent control: inactive
--
smiles: Nc1ccccc1C(=O)OC/C=C/c1ccccc1
fluorescence, % of fluorescent control: inactive
--
smiles: CCCCN(CCCC)C(=S)[S-].CCCCN(CCCC)C(=S)[S-].[Zn+2]
fluorescence, % of fluorescent control: inactive
--
smiles: N#CCCSCCC#N
fluorescence, % of fluorescent control: inactive
--
smiles: OC(c1ccc(Cl)cc1)(c1ccc(Cl)cc1)C(Cl)(Cl)Cl
fluorescence, % of fluorescent control: inactive

* * *

target: Nuclear receptor ROR-gamma (Homo sapiens); assay: qHTS assay to identify small molecule antagonists of the retinoid-related orphan receptor gamma (ROR-gamma) signaling pathway (AID 1159521; further: nearly all actives have a fitted effect of over 50% in size); settings: Tet-on RORgamma CHO cells, RORE-luciferase, 16 h; series mostly up to 92.4 µM
Results filed as inconclusive are left out. Activity calls are given as the source filed them. Calls follow the shape of the dose curve; as a rule, active = well fitted inhibition curve with a large enough effect in the repeat runs; inconclusive = weak or mixed curves, or effect the other way; inactive = no such curve, though single readings can be large or run the other way.
Classes used: active, inactive

molecule: CC(Cc1ccc(C(C)(C)C)cc1)CN1C[C@@H](C)O[C@@H](C)C1 (some centres not stated)
discrete-label: inactive

molecule: C[C@H]1CC[C@@H]2[C@@H](C)[C@H]3[C@H](C[C@H]4[C@@H]5CC=C6CC(O[C@@H]7O[C@H](CO)[C@H](O)[C@H](O[C@@H]8O[C@H](CO)[C@@H](O)[C@H](O)[C@H]8O)[C@H]7O[C@H]7O[C@@H](C)[C@H](O)[C@@H](O)[C@H]7O)CC[C@]6(C)[C@H]5CC[C@]34C)N2C1 (some centres not stated)
discrete-label: inactive

molecule: COc1ccc(/C(=C/C(=O)N2CCOCC2)c2ccc(Cl)cc2)cc1OC
discrete-label: inactive

molecule: O=[N+]([O-])c1cc(Cl)ccc1Cl
discrete-label: inactive

molecule: CC[C@H]1C[C@@H]2C[C@H]3c4[nH]c5ccc(OC)cc5c4CCN(C2)[C@@H]13
discrete-label: inactive

molecule: CCCCCCCCCCCCBr
discrete-label: inactive

molecule: C=CCC1=C(C)C(OC(=O)C2C(C=C(C)C)C2(C)C)CC1=O (configuration not stated)
discrete-label: active

molecule: Oc1c(Cl)c(Cl)cc(Cl)c1Cl
discrete-label: active

molecule: O=c1c(C2CC(c3ccc(-c4ccc(Br)cc4)cc3)Cc3ccccc32)c(O)sc2ccccc12 (configuration not stated)
discrete-label: active

molecule: CCOC(=O)c1ccccc1S(=O)(=O)NC(=O)Nc1nc(Cl)cc(OC)n1
discrete-label: inactive

molecule: CCCCCCCCc1ccc(O)cc1
discrete-label: inactive

molecule: ClC1=C(Cl)[C@]2(Cl)[C@@H]3[C@@H]4C[C@@H]([C@H]5O[C@@H]45)[C@@H]3[C@@]1(Cl)C2(Cl)Cl
discrete-label: active

molecule: O=[N+]([O-])c1ccc(Oc2ccc(C(F)(F)F)cc2[N+](=O)[O-])cc1
discrete-label: inactive

molecule: Nc1ccc(Cc2ccc(N)c(Cl)c2)cc1Cl
discrete-label: inactive

molecule: O=[N+]([O-])c1ccc2ccc3cccc4ccc1c2c34
discrete-label: inactive

molecule: Clc1ccc(C(c2ccc(Cl)cc2)C(Cl)(Cl)Cl)cc1
discrete-label: active

molecule: CC(C)(c1ccc(O)c(-c2ccccc2)c1)c1ccc(O)c(-c2ccccc2)c1
discrete-label: active

molecule: NNC(=O)c1ccccc1
discrete-label: inactive

molecule: CCOC(=O)OC1=C(c2cc(C)ccc2C)C(=O)NC12CCC(OC)CC2 (configuration not stated)
discrete-label: inactive

molecule: CC(C)(C)c1ccc(CSc2cnn(C(C)(C)C)c(=O)c2Cl)cc1
discrete-label: active

molecule: CC(=O)c1cc(C(C)(C)C)cc2c1CCC2(C)C
discrete-label: inactive

molecule: CCCCCCCCCCCCCCCC[n+]1ccccc1
discrete-label: active

molecule: FC(F)(F)c1cccc(C2=CCN(CCc3ccc4ccccc4c3)CC2)c1
discrete-label: inactive

molecule: [CH3][Hg][Cl]
discrete-label: active

molecule: COc1ccc(OC)c(CC(C)N)c1 (configuration not stated)
discrete-label: inactive

molecule: O=C1C=CC(=O)c2ccccc21
discrete-label: active

molecule: CCCN(CC)CC1COC2(CCC(C(C)(C)C)CC2)O1 (configuration not stated)
discrete-label: inactive

molecule: CC(C)CBr
discrete-label: inactive

molecule: COC12CC[C@@]3(C[C@@H]1C(C)(O)C(C)(C)C)[C@H]1Cc4ccc(O)c5c4[C@@]3(CCN1CC1CC1)[C@H]2O5 (some centres not stated)
discrete-label: active

molecule: O=c1ssc(Cl)c1Cl
discrete-label: active

molecule: Clc1ccc(CO/N=C(\Cn2ccnc2)c2ccc(Cl)cc2Cl)c(Cl)c1
discrete-label: active

molecule: N#CCc1ccc(Cl)cc1
discrete-label: inactive

molecule: N#CC(Cl)Cl
discrete-label: inactive

molecule: Fc1ccc(Oc2ccnc3cc(Cl)cc(Cl)c23)cc1
discrete-label: inactive

molecule: COS(=O)(=O)c1ccc(C)cc1
discrete-label: inactive

molecule: Cc1cc(C)cc(OP(=O)(Oc2cc(C)cc(C)c2)Oc2cc(C)cc(C)c2)c1
discrete-label: inactive

molecule: c1ccc(Nc2ccc3ccccc3c2)cc1
discrete-label: inactive

molecule: CC(C)(C)OO
discrete-label: inactive

molecule: ClC1=C(Cl)[C@]2(Cl)[C@@H]3[C@@H](Cl)[C@H](Cl)C[C@@H]3[C@@]1(Cl)C2(Cl)Cl
discrete-label: inactive

molecule: COC(=O)N(C(=O)N1COC2(C(=O)OC)Cc3cc(Cl)ccc3C2=N1)c1ccc(OC(F)(F)F)cc1 (configuration not stated)
discrete-label: active

molecule: N#CNC#N
discrete-label: inactive

molecule: Clc1ccc(CSC(Cn2ccnc2)c2ccc(Cl)cc2Cl)cc1 (configuration not stated)
discrete-label: active

molecule: C[CH2][Hg][N]1C(=O)C2C(C1=O)C1(Cl)C(Cl)=C(Cl)C2(Cl)C1(Cl)Cl (configuration not stated)
discrete-label: active

molecule: COP(=O)(OC)SCn1c(=O)oc2cc(Cl)cnc21
discrete-label: inactive

molecule: N#CCCC(Br)(C#N)CBr (configuration not stated)
discrete-label: active

molecule: c1ccc(OCC2CO2)cc1 (configuration not stated)
discrete-label: inactive

molecule: O=C(CBr)c1ccc(O)cc1
discrete-label: active

Reference source: PubChem BioAssay (Tox21)
